Values compiled from ChEMBL document CHEMBL3526119.

Test: AUC (0 to infinity) in healthy white human with SLCO1B1 521TT/CYP2C8*1/*1 combined genotype at 2 mg, po
Type: ADME, organism-based
Parameters: dose 2 mg, route oral, time infinity
Details: plasma
measured-quantity: AUC(0-inf) (ng·h/mL)
Give bare numbers, in ng·h/mL.

query: Give the value of AUC(0-inf) reported for the following: CCOc1cc(CC(=O)N[C@@H](CC(C)C)c2ccccc2N2CCCCC2)ccc1C(=O)O [REPAGLINIDE]
result: 92.3

---

Test system: Homo sapiens
Test: Mean change in insulin concentration in healthy white human plasma with SLCO1B1 521CC/CYP2C8*1/*3 combined genotype at 2 mg, po
Type: ADME, organism-based
Conditions: in vivo
measured-quantity: Activity (mU/l)
Give bare numbers, in mU/l.

query: Give the value of Activity reported for the following: CCOc1cc(CC(=O)N[C@@H](CC(C)C)c2ccccc2N2CCCCC2)ccc1C(=O)O [REPAGLINIDE]
result: 0.6
